Biological target: D3 DAR (Homo sapiens)
Sequence (P35462 whole entry): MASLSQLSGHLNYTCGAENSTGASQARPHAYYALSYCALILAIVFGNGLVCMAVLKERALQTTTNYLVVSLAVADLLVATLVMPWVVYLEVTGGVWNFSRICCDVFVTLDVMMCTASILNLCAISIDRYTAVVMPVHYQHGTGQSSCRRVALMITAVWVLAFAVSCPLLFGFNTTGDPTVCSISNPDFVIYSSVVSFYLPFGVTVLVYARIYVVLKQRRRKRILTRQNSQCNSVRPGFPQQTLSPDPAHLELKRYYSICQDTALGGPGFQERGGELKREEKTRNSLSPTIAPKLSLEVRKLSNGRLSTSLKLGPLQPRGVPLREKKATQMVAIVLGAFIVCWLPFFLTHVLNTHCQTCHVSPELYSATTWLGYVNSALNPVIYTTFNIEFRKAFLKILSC
Test: DiscoverX D3 DAR β-arrestin recruitment assay
Type: cell-based
Design: host or cells: CHO
Conditions: EC80 concentration of DA (30 nM); read-out: D3 DAR IC50
Text: A D3 DAR β-arrestin cell line from DiscoverX (Fremont, CA) was used as described in the protocol below (Table 2). A CHO cell line engineered to overexpress the D3 DAR fused with a small 42-amino acid fragment of β-galactosidase called ProLink™ and a fusion protein consisting of β-arrestin and a larger N-terminal deletion mutant of β-galactosidase was used (DiscoverX catalogue number 93-0579C2). […]
pIC50: −log10 of the molar value.
measure name: pIC50

| smiles repr | measure name | obs value |
| --- | --- | --- |
| Cc1[nH]c(C)c(S(=O)(=O)Nc2ccc(Cl)c(C(F)(F)F)c2)c1C(=O)N1CCCC1 | pIC50 | > 5.00 |
| Cc1[nH]c(C)c(S(=O)(=O)Nc2cc(Cl)c(C(F)(F)F)cc2Br)c1C(=O)N1CCC(F)(F)C1 | pIC50 | > 5.00 |
| Cc1ccc(NS(=O)(=O)c2c(C)[nH]c(C)c2C(=O)N2CCC2)cc1Cl | pIC50 | 4.30 to 5.00 |
| Cc1[nH]c(C)c(S(=O)(=O)Nc2ccc(Cl)cc2C(F)(F)F)c1C(=O)N1CCC(F)(F)C1 | pIC50 | 4.30 to 5.00 |
